# assay-name: Pharmacokinetics and bioavailability test in beagle dogs (Test Example 4)
# Type: in vivo
# test-context: dog, in vivo, IV 0.69 mg/kg (calculated based on free base)
measured-attribute: Cmax (ng/mL)
Write it as a number; the unit ng/mL goes unstated.

Problem: For CN1CCC(N2Cc3cc(F)ccc3CN(Cc3ccc(OC4CC4)cc3)C2=O)CC1 [citrate] , write its Cmax.
Solution: 220

---

# assay-name: Pharmacokinetics and bioavailability test in beagle dogs (Test Example 4)
# Format: in vivo
# test-context: both sexes, dog, plasma, PO 10 mg/kg (calculated based on free base), capsule
measured-attribute: AUC(0-inf) (ng·h/mL)
Write it as a number; the unit ng·h/mL goes unstated.

Problem: For CN1CCC(N2Cc3cc(F)ccc3CN(Cc3ccc(OC4CC4)cc3)C2=O)CC1.O=C(O)CC(O)(CC(=O)O)C(=O)O [Crystalline form II] , write its AUC(0-inf).
Solution: 6400
